# assayed-system: DDR2 (Homo sapiens (Human))
# Sequence (Q16832 22-855): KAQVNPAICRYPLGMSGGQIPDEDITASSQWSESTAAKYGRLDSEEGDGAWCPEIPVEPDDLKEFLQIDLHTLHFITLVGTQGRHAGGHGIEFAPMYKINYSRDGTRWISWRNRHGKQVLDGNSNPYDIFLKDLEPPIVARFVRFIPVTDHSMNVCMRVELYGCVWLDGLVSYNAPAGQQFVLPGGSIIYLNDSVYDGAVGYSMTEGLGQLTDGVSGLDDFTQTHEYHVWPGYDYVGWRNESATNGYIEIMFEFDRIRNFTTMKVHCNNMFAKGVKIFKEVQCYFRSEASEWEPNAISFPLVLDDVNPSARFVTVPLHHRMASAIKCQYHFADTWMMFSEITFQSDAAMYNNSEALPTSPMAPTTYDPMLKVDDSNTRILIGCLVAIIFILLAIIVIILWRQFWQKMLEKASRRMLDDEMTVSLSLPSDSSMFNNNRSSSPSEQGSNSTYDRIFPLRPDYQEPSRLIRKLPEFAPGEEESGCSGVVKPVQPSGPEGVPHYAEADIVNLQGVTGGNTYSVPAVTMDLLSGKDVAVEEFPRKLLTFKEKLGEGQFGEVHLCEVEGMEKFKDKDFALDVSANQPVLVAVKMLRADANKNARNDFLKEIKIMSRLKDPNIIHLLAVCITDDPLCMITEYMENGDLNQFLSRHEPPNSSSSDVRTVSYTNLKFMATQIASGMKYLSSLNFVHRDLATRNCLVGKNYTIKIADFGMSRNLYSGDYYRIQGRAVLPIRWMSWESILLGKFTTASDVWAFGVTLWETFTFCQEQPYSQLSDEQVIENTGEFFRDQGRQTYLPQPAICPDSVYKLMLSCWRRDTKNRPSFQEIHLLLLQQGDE
# experiment: DDR2 binding assay (LanthaScreen Europium Kinase Binding assay)
# experimental-context: potency class, read-out: Ki DDR2
quantity: Ki

Look over these answered cases.
structure-smiles-string | Ki
CN1CCN(c2cncc(CN3CCc4c(C(=O)Nc5cccc(C(F)(F)F)c5)csc4C3)c2)CC1=O | < 25 nM
COCCNc1ncc(CN2CCc3c(C(=O)Nc4cc(F)cc(C(F)(F)F)c4)csc3C2)cn1 | < 25 nM

Q: Could you share which Ki value was measured for N#Cc1cc(NC(=O)c2csc3c2CCN(Cc2cncnc2)C3)cc(C(F)(F)F)c1 ?
A: < 25 nM

Q: Could you share which Ki value was measured for COc1ncncc1CN1CCc2c(C(=O)Nc3cc(CN4CC[C@@H](N(C)C)C4)cc(C(F)(F)F)c3)csc2C1 ?
A: < 25 nM

Q: Could you share which Ki value was measured for CC(C)(C)c1cc(NC(=O)c2csc3c2CCN(Cc2cnc(N)nc2)C3)no1 ?
A: < 25 nM

====

# assayed-system: DDR1 (Homo sapiens (Human), UniProt Q08345)
# Sequence (Q08345 19-913): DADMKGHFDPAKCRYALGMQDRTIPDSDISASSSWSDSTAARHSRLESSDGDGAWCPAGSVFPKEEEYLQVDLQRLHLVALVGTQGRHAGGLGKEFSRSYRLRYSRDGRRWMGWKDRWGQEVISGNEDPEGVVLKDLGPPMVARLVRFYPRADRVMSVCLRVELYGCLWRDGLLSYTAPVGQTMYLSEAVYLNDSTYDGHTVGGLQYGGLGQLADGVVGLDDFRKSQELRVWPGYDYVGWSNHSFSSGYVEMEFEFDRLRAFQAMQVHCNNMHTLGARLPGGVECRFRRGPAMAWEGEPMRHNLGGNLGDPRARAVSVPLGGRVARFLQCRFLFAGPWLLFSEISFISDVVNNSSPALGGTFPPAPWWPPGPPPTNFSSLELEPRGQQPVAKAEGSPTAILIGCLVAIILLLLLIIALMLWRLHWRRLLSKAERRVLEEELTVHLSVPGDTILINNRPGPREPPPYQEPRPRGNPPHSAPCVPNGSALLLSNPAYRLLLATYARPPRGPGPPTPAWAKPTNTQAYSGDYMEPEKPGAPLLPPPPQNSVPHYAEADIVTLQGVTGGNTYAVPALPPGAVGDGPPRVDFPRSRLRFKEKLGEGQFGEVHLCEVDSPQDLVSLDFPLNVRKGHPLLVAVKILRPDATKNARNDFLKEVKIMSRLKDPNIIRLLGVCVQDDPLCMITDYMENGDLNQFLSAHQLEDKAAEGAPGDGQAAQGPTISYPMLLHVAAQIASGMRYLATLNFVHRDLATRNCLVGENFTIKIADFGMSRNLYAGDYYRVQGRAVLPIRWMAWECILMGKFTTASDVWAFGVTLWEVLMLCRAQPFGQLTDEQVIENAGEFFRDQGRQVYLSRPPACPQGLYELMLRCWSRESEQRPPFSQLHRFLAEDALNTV
# experiment: DDR1 binding assay (LanthaScreen Europium Kinase Binding assay)
# experimental-context: potency class, read-out: Ki DDR1
# Procedure: DDR1 and DDR2 binding assays were performed using Life Technologies LanthaScreen™ Europium Kinase Binding assay. […] The ratio of fluorescence emission 665 nm/615 nm after excitation at 340 nm was obtained using the Tecan Spark 20M plate reader. IC50 values were determined in GraphPad Prism 7.0 software, using 4 parameter model: log(inhibitor) vs. response. […]
quantity: Ki

Look over these answered cases.
structure-smiles-string | quantity | result
Nc1ncncc1CN1CCc2c(C(=O)Nc3cc(F)cc(C(F)(F)F)c3)csc2C1 | Ki | < 25 nM
CN1CCN(Cc2cc(NC(=O)c3csc4c3CCN(Cc3cncnc3)C4)cc(C(F)(F)F)c2)CC1 | Ki | 25 to 50 nM
O=C(Nc1ccc(F)c(C(F)(F)F)c1)c1csc2c1CCN(Cc1cncnc1)C2 | Ki | < 25 nM
O=C(Nc1cc(C(F)(F)F)ccc1F)c1csc2c1CCN(Cc1cncnc1)C2 | Ki | < 25 nM
Nc1nccnc1CN1CCc2c(C(=O)Nc3cncc(C(F)(F)F)c3)csc2C1 | Ki | < 25 nM

Q: Record lookup: for DDR1 (Homo sapiens (Human), UniProt Q08345), what Ki belongs to O=C(Nc1cncc(C(F)(F)F)c1)c1csc2c1CCN(Cc1cccnc1)C2 ?
A: < 25 nM

Q: Record lookup: for DDR1 (Homo sapiens (Human), UniProt Q08345), what Ki belongs to Cn1cc(Nc2ncc(CN3CCc4c(C(=O)Nc5cccc(C(F)(F)F)c5)csc4C3)cn2)cn1 ?
A: < 25 nM

Q: Record lookup: for DDR1 (Homo sapiens (Human), UniProt Q08345), what Ki belongs to CC(C)(C)c1cc(NC(=O)c2csc3c2CCN(Cc2cnc(N)nc2)C3)no1 ?
A: < 25 nM

Q: Record lookup: for DDR1 (Homo sapiens (Human), UniProt Q08345), what Ki belongs to Cn1nc(C(C)(C)C)cc1NC(=O)c1csc2c1CCN(Cc1cnc(N)nc1)C2 ?
A: < 25 nM

Q: Record lookup: for DDR1 (Homo sapiens (Human), UniProt Q08345), what Ki belongs to CN1CCN(c2cncc(CN3CCc4c(C(=O)Nc5cccc(C(F)(F)F)c5)csc4C3)c2)CC1=O ?
A: < 25 nM

Q: Record lookup: for DDR1 (Homo sapiens (Human), UniProt Q08345), what Ki belongs to O=C(Nc1cc(F)cc(OC(F)F)c1)c1csc2c1CCN(Cc1cncnc1)C2 ?
A: < 25 nM

Q: Record lookup: for DDR1 (Homo sapiens (Human), UniProt Q08345), what Ki belongs to CC(=O)Nc1ncc(CN2CCc3c(C(=O)Nc4cc(F)cc(C(F)(F)F)c4)csc3C2)cn1 ?
A: < 25 nM

Q: Record lookup: for DDR1 (Homo sapiens (Human), UniProt Q08345), what Ki belongs to O=C(Nc1cccc(C(F)(F)F)c1)c1csc2c1CCN(Cc1cccnc1)C2 ?
A: < 25 nM

Q: Record lookup: for DDR1 (Homo sapiens (Human), UniProt Q08345), what Ki belongs to O=C(Nc1cccc(C(F)(F)F)c1)c1csc2c1CCN(Cc1cncc(N3CCS(=O)(=O)CC3)c1)C2 ?
A: < 25 nM

====

pIC50: −log10 of the molar value.
Measured pIC50 (DDR1 (Homo sapiens (Human)))

Look over these answered cases.
molecule | pIC50
N#Cc1cc(NC(=O)c2csc3c2CCN(Cc2cncnc2)C3)cc(C(F)(F)F)c1 [Example 14] | > 7.60
Cn1cncc1C(=O)N1CCc2c(C(=O)Nc3cc(F)cc(C(F)(F)F)c3)csc2C1 [Example 49] | > 7.60
CC(C)(C)c1cc(NC(=O)c2csc3c2CCN(Cc2cnc(N)nc2)C3)no1 [Example 64] | > 7.60

Pending molecule:
Q: Record lookup: for DDR1 (Homo sapiens (Human)), what pIC50 belongs to CN(C)[C@@H]1CCN(Cc2cc(NC(=O)c3csc4c3CCN(Cc3cncc(-c5cnn(C)c5)c3)C4)cc(C(F)(F)F)c2)C1 [Example 54] ?
A: 7.30 to 7.60

====

Each item that follows carries a reported IC50.
# assayed-system: DDR1 (Homo sapiens (Human), UniProt Q08345)

Q: Record lookup: for DDR1 (Homo sapiens (Human), UniProt Q08345), what IC50 belongs to O=C(Nc1ccc(F)c(OC(F)(F)F)c1)c1csc2c1CCN(Cc1cncnc1)C2 ?
A: < 25 nM

Q: Record lookup: for DDR1 (Homo sapiens (Human), UniProt Q08345), what IC50 belongs to Cn1nc(C(C)(C)C)cc1NC(=O)c1csc2c1CCN(Cc1nccnc1N)C2 ?
A: 25 to 50 nM

====

Each item that follows carries a reported pIC50.
# assayed-system: DDR1 (Homo sapiens (Human), UniProt Q08345)
pIC50: −log10 of the molar value.

structure-smiles-string | pIC50
CC(=O)Nc1ncc(CN2CCc3c(C(=O)Nc4cc(F)cc(C(F)(F)F)c4)csc3C2)cn1 | 7.30 to 7.60
CNc1ncc(CN2CCc3c(C(=O)Nc4cc(F)cc(C(F)(F)F)c4)csc3C2)cn1 | > 7.60
Nc1ncc(CN2CCc3c(C(=O)Nc4cncc(OC(F)(F)F)c4)csc3C2)cn1 | > 7.60
Cn1cc(Nc2ncc(CN3CCc4c(C(=O)Nc5cccc(C(F)(F)F)c5)csc4C3)cn2)cn1 | > 7.60

Q: Record lookup: for DDR1 (Homo sapiens (Human), UniProt Q08345), what pIC50 belongs to O=C(Nc1cccc(C(F)(F)F)c1)c1csc2c1CCN(Cc1cccnc1)C2 ?
A: 7.30 to 7.60

Q: Record lookup: for DDR1 (Homo sapiens (Human), UniProt Q08345), what pIC50 belongs to Nc1ncncc1CN1CCc2c(C(=O)Nc3cc(F)cc(C(F)(F)F)c3)csc2C1 ?
A: > 7.60

Q: Record lookup: for DDR1 (Homo sapiens (Human), UniProt Q08345), what pIC50 belongs to CN(C)Cc1cc(NC(=O)c2csc3c2CCN(Cc2cnc(N)nc2)C3)cc(C(F)(F)F)c1 ?
A: 7.30 to 7.60

Q: Record lookup: for DDR1 (Homo sapiens (Human), UniProt Q08345), what pIC50 belongs to CN1CCN(Cc2cc(NC(=O)c3csc4c3CCN(Cc3cccnc3)C4)cc(C(F)(F)F)c2)CC1 ?
A: 7.10 to 7.30

====

# assayed-system: DDR1 (Homo sapiens (Human))
pIC50: −log10 of the molar value.
quantity: pIC50

structure-smiles-string | pIC50
O=C(Nc1cc(F)cc(C(F)(F)F)c1)c1csc2c1CCN(Cc1cnc(NC3COC3)nc1)C2 | 7.30 to 7.60

Q: Record lookup: for DDR1 (Homo sapiens (Human)), what pIC50 belongs to COCCNc1ncc(CN2CCc3c(C(=O)Nc4cc(F)cc(C(F)(F)F)c4)csc3C2)cn1 ?
A: 7.10 to 7.30

Q: Record lookup: for DDR1 (Homo sapiens (Human)), what pIC50 belongs to CC(=O)Nc1ccc(CN2CCc3c(C(=O)Nc4cc(F)cc(C(F)(F)F)c4)csc3C2)cn1 ?
A: > 7.60

Q: Record lookup: for DDR1 (Homo sapiens (Human)), what pIC50 belongs to CN(C)Cc1cc(NC(=O)c2csc3c2CCN(Cc2cnc(N)nc2)C3)cc(C(F)(F)F)n1 ?
A: 7.30 to 7.60

Q: Record lookup: for DDR1 (Homo sapiens (Human)), what pIC50 belongs to Cn1cc(Nc2ncc(CN3CCc4c(C(=O)Nc5cc(C(C)(C)C)nn5C)csc4C3)cn2)cn1 ?
A: > 7.60

Q: Record lookup: for DDR1 (Homo sapiens (Human)), what pIC50 belongs to Nc1ncc(CN2CCc3c(C(=O)Nc4cc(F)cc(C(F)(F)F)c4)csc3C2)cn1 ?
A: > 7.60

Q: Record lookup: for DDR1 (Homo sapiens (Human)), what pIC50 belongs to O=C(Nc1cccc(C(F)(F)F)c1)c1csc2c1CCN(Cc1cncnc1)C2 ?
A: 7.30 to 7.60

Q: Record lookup: for DDR1 (Homo sapiens (Human)), what pIC50 belongs to O=C(Nc1cccc(OC(F)F)c1)c1csc2c1CCN(Cc1cncnc1)C2 ?
A: 7.10 to 7.30
